Molecular target: UniProt P21917
Sequence (P21917 whole entry): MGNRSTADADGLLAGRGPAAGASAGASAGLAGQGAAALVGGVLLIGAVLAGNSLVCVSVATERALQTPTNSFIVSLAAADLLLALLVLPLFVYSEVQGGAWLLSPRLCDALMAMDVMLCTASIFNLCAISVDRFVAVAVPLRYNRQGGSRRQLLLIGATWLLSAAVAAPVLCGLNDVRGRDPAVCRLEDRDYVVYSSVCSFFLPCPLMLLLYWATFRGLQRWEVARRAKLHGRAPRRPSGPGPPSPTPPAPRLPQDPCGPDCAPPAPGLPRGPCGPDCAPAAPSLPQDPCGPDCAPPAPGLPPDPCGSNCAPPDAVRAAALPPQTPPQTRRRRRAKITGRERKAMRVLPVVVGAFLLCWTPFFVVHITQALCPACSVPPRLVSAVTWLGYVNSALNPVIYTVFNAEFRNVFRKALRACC
Test: pKi of test compounds, D4 receptor
Type: binding
Endpoint: Ki

# Compound smiles, Target or system, Endpoint, Experimental value
data = [
    ("O=C1CC2(CCCC2)CC(=O)N1CCCCN1CCN(c2nsc3ccccc23)CC1", "UniProt P21917", "Ki", "1 to 10 nM"),
]

====

Molecular target: UniProt P28221
Sequence (P28221 whole entry, species assumed): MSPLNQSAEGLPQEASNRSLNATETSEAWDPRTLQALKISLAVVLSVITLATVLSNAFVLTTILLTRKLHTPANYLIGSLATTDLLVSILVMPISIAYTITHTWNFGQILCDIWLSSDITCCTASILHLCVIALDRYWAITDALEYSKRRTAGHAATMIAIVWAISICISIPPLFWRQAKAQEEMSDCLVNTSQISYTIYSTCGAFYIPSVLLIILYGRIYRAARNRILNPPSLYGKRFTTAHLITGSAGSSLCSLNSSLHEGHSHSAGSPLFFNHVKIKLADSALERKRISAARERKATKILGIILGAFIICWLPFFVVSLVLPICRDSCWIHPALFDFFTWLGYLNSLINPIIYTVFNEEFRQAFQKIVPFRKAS
Assay: pKi of test compounds, 5HT1D receptor
Type: binding

# Molecule, Ki
rows = [
    ("COC(=O)[C@@H]1[C@H]2C[C@H]3c4[nH]c5ccccc5c4CCN3C[C@@H]2CC[C@@H]1O [Yohimbine]", "0.01 to 0.1 µM"),
]
